procedure-summary: yeast display, Sf9 membrane polyspecificity reagent, FACS + sequencing; frameworks hold sequencing errors
assay-endpoint: polyreactivity (PSR sort gate)

Study these solved cases before continuing.
[[record]]
entry_sequence = "QVQLVESGGGLVQAGGSLRLSCAASGFTLTRNAMGWYRQAPGKERELVAAISWSGGTTYYADSVKGRFTISRDNAKNTVYLQMNSLKPEDTAVYYCAADYTLQRQTSFLDSEFYWGQGTQVTVSS"
assay_endpoint = "polyreactivity (PSR sort gate)"
value_observed = "high polyreactivity"

[[record]]
entry_sequence = "QVQLVESGGGLVQAGGSLRLSCAASGRTFALNAMGWYRQAPGKERELVAAISWSSGRTYYADSVKGRFTISRDNAKNTDYLKMNSLKPEDSAVYYCAALVAHKGDYWGQGTQVTVSS"
assay_endpoint = "polyreactivity (PSR sort gate)"
value_observed = "high polyreactivity"

[[record]]
entry_sequence = "QVQLVESGGGLVQAGGSLRLSCAASGITFIRNGMGWYRQAPGKERELVAAISDTGARTYYADSVKGRFTISRDNAKNTVYLQMNSLKPEDTAVYYCAAEVRTRYLYSFRWYDYWGQGTQVTVSS"
assay_endpoint = "polyreactivity (PSR sort gate)"
value_observed = "low polyreactivity"

[[record]]
entry_sequence = "QVQLVESGGGLVQAGGSLRLSCAASGITFYKYDMGCYRQATGKERELVAAISFRGGNTNYADSVKGRFTISRDNAKNTVYLQMTSLKPEDTAVYYCAAYSYTWFYEYGYWGLGTQVTVSS"
assay_endpoint = "polyreactivity (PSR sort gate)"
value_observed = "high polyreactivity"


Input: Value lookup for polyreactivity (PSR sort gate); key = `QEQLVESGGGLVQAGGSLRISCAASGFIFGFYAMGWYRQAPGKERELVAAISWSAGSTYFADSVMGRFTISRDNAKNTVYLQMYSLKPEDTAVYYCAAYFDFRDDAVTYDYWGQGTQVTVSS`
Output: low polyreactivity

---

procedure-summary: yeast display, Sf9 membrane polyspecificity reagent, FACS + sequencing; frameworks hold sequencing errors
assay-endpoint: polyreactivity (PSR sort gate)

# count of solved cases: 10
[[record]]
entry_sequence = "QVQLVESGGGLVQAGGSLRLSCAASGFTFGYNDMGWYRQATGKVRELVAGIRSGDDTNYADSVKGRFTISRDNAKNTVYLQMNSLKPEDTAVYYCAVGYGDYLYYDYDYWGQGTQVTVSS"
assay_endpoint = "polyreactivity (PSR sort gate)"
value_observed = "low polyreactivity"

[[record]]
entry_sequence = "QVQLVESGGGLVQAGGSLRLSCAASGFILDFNAMGWYRQAPGKERELVAAISISGVSTYYADSVKGRFTISRDNAKNTVYLQMNSLKPEDTAVYYCAAAQDAAVYWRPGGYDYWGQGTQVTVSS"
assay_endpoint = "polyreactivity (PSR sort gate)"
value_observed = "low polyreactivity"

[[record]]
entry_sequence = "QVQLVESGGGLVQAGGSLRLSCAASGSTFPYNAKGWYRQAPGKERELVAAITTRGSTYYADSVKGRFTISRDNAKNTVYLQMNSLNPEESAVYYCANGPSLWYRSSFRGEGDYWGQGTQVTVSS"
assay_endpoint = "polyreactivity (PSR sort gate)"
value_observed = "low polyreactivity"

[[record]]
entry_sequence = "QVQLVESGGGLVQAGGSLRISCAPSGRIFNINEMGWYRPARGKEREWVARITTGGRTNYADSVKGRFTISRDNAKNTFYLQMNSLKPADTAVYYCAARTYGQLGDYWGQGTQVTVSS"
assay_endpoint = "polyreactivity (PSR sort gate)"
value_observed = "high polyreactivity"

[[record]]
entry_sequence = "QVQLVESGGCLVQAGGSLRLSCAASGRIFRYNTMGWYRQAPGKEREFVASISNGGSTNYADSVKGRFTISRDNAKNTVYLQMNSLKPEDTAVYYCNADVPSDGYPGYPGGFESWGQGTQVTVSS"
assay_endpoint = "polyreactivity (PSR sort gate)"
value_observed = "low polyreactivity"

[[record]]
entry_sequence = "QVQLVESGGGLVQAGGSLRLSCAASGRMFWSNAMGWYIQAPGKERELFAAIRNTGSTNYADSVKGRFTISRDNAKNTVYLQMNSLKPEDTAVYYCAAYKGSSKYDYWGQGTQVTVSS"
assay_endpoint = "polyreactivity (PSR sort gate)"
value_observed = "high polyreactivity"

[[record]]
entry_sequence = "QVQLVESGGGLVQAGGSLRLSCAASGFTFDQYAMGRNRQAPGKERELVAVISSGGSTYYADSVKGRFTFSRDNAKNTVYLQMNSLKQEDTAVYYCNRDRQRRYDYWGQGTQVTLSS"
assay_endpoint = "polyreactivity (PSR sort gate)"
value_observed = "high polyreactivity"

[[record]]
entry_sequence = "QVQVVESGGGLVQAGGSLRLSCAASGSIFFVYAMGWYRQAPGKERELVAAISSGDITYYADSVKGRFTISRDNAKNTVYLQLISLKPEDTAVYYCNAERLGNTLSPGGDDYWGQGTQVTVSS"
assay_endpoint = "polyreactivity (PSR sort gate)"
value_observed = "low polyreactivity"

[[record]]
entry_sequence = "QVQLVESGGGLVQAGGSIRLSCAASGSTFVWNAMGWYRQAPGKERELVAAISSSGGSTYYADSVKGRFTISRDNAKNTVYLQMNSLKPEDTAVYYCAAYYGRRRFGYWGQGTQVTVSS"
assay_endpoint = "polyreactivity (PSR sort gate)"
value_observed = "high polyreactivity"

[[record]]
entry_sequence = "QVQLVESGGGLVQAGGSLRLSCAASGFTFDSYAMGWYRQAPGKERELVADITWDGGSTYYADSVKGRFTISRDNAKNTVYLQMKSLKPEDTAVYYCAADFGTFSIDVYSWMDYWGQGTQATVSS"
assay_endpoint = "polyreactivity (PSR sort gate)"
value_observed = "low polyreactivity"


Input: # input sequence: `QVQLVESGGGLVQAGGSLRLSCAASGSTFSHYTMGWYRQAPGKERELVAAITRSGGSTYYADSVKARFTISRDNAKNNVYLQMTSLNPEDSAVYYCAATRQWNILRYDYWGQGTLVTVSS` ; wanted: its polyreactivity (PSR sort gate)
Output: low polyreactivity

---

procedure-summary: yeast display, Sf9 membrane polyspecificity reagent, FACS + sequencing; frameworks hold sequencing errors
assay-endpoint: polyreactivity (PSR sort gate)

Consider the reported polyreactivity (PSR sort gate) for these sequences:
[[record]]
entry_sequence = "QVQLVESGGGLVQAGGSLRLSCCASGFTVSSYARAWYRQAPGKERELVAAITYRGGSTYYADSVKGRFTISRDNAKNTVFLLMNSLKPEDTAVYYCAARWGYRMYWGQGTQVTVSS"
value_observed = "high polyreactivity"

[[record]]
entry_sequence = "QVQLVESGGGLVQAGGSLRLSCAASGSTFVYNAMGWYRQAPGKERELVAAISARTGRTYYADSVKGRFTISRDNAKNTVYLQMNSLKPEDTAVYYCARRYYTGYKNLPYGYWGQGTQVTVSS"
value_observed = "high polyreactivity"

[[record]]
entry_sequence = "QVQLVESGGGLVQAGGSLRLRCAASARTFGKYAMGWYRQAPGKERELVASNSLSGGSTYYADSVKGRFTISRDNAKNTVYLQMNSLKPEDTAVYSCAAKHGWYGLGYWGQGTQVTVSS"
value_observed = "low polyreactivity"

[[record]]
entry_sequence = "QVQLVESGGGLVQAGGSLRLSCAASGNTFANYAMGWYRQAPGKERELVAAITSNGGSTYYADSVKGRFTISRDNAKNTVYLQMNSLKPEDTAVYYCAADAAYYSGYDYWGQGTQVTVSS"
value_observed = "low polyreactivity"


Attention now shifts to the item below.
Input: Quick check: polyreactivity (PSR sort gate) of `QVQLVESGGGLVQAGGSLRLSCAASGSIFYWYAMGWYRQAPGKEREFVAGITGRGGSTYYADSVKGRFTISRDNAKNTVYLQMNSLKPEDTAVYYADFVKYGKYYQRYDYWGQGTQVTVSS` ?
Output: high polyreactivity

---

procedure-summary: yeast display, Sf9 membrane polyspecificity reagent, FACS + sequencing; frameworks hold sequencing errors
assay-endpoint: polyreactivity (PSR sort gate)

[[record]]
entry_sequence = "QVQLVESGGGLVQAGGSLRLICAASGRIFPDYDMGWYRQAPGKERELVAAITQRGGSTYADSVKGRFTISRDNAKNTVYLQMNSLKPEDTAVYYCNARWQRPYDYWGQGTQVTVSS"
value_observed = "low polyreactivity"

[[record]]
entry_sequence = "QVQLVESGGGLVQAGGSLRLSCAASGITFPYYALGWYRQAPGKERELVARISRGGRTNYADSVKGRFTISRDNAKNTVYLQMNSLKPEDTAVYYCNAGYTYYKYGYWGQGTQVTVSS"
value_observed = "high polyreactivity"

[[record]]
entry_sequence = "QVHLVESGGGLVQAGGSLRLSCAASGYTFLANAMGWYSQAPGKERELVAAISSGGTTYYADSVKGRFTISRDNAKNTVYLQMNSLKPEDTAVYYCATVFRDYDFNHWGQGTQVTVSS"
value_observed = "low polyreactivity"

[[record]]
entry_sequence = "QVQLVESGGGLVQAGGSLRLSCAASGSIFYYNAMGWYRQAPGKERELVATIRTSGGSTYYADSVKGRFTISRDNAKNTVYLQMNSLKPVDTAVYYCAARDLRKLYSRYPYYYWGQGTQVTVSS"
value_observed = "high polyreactivity"


// next entry
Input: Find the recorded polyreactivity (PSR sort gate) belonging to `QVQLVESGGGLDQAGGSLRLSCAASGITFRWYAMGWYRQAPGKERELVAAISSGGSTRYADSVKGRFTISRDNAKNTVYLQMNSLKPEDTAVYYCAKRYYGRGYYYWGQGTQVTVSS` and report it.
Output: high polyreactivity
